molecular target: CDK9/CycT1 (Homo sapiens (Human), UniProt P50750); assay: CDK9/CycT1 kinase assay (TR-FRET); assay type: biochemical; conditions: Method 1
Sequence (P50750 whole entry): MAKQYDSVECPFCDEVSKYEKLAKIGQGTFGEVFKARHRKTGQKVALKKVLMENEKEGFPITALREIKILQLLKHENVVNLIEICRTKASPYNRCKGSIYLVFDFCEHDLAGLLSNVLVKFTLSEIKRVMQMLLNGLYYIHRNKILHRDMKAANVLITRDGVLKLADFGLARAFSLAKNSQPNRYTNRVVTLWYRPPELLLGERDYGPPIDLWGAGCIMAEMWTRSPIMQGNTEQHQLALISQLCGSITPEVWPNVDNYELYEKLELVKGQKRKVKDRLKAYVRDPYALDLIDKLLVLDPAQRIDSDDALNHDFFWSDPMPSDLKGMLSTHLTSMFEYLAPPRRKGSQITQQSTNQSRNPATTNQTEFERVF
Sequence (O60563 whole entry partner): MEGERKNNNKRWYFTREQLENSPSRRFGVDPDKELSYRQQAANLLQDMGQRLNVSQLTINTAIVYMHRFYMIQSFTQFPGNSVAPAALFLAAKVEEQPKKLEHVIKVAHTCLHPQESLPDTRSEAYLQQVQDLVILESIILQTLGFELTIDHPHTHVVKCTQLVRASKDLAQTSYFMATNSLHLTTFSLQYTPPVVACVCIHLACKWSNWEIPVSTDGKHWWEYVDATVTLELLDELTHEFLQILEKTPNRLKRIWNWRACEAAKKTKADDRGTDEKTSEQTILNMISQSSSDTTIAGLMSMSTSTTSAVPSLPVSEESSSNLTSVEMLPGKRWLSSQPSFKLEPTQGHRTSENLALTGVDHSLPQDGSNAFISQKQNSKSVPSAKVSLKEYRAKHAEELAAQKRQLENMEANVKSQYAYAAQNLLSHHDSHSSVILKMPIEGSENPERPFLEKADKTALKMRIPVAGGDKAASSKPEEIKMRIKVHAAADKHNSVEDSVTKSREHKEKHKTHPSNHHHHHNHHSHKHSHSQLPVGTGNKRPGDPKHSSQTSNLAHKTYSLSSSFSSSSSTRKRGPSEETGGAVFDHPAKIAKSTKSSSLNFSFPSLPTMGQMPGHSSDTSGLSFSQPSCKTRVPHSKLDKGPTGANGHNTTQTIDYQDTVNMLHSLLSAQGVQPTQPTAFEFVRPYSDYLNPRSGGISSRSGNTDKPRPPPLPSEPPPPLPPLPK
MEASURE: pIC50
The quantity pIC50 is defined as the negative base-10 logarithm of the molar concentration.

# annotated cases, reported pIC50 shown
COc1ccc(F)cc1-c1ncnc(Nc2cccc(CS(C)(=N)=O)c2)n1 (racemic) [Example 21] = 7.25
CCOC(=O)N=S(C)(=O)Cc1cccc(Nc2ncnc(-c3ccccc3OCc3ccc(Cl)c(Cl)c3)n2)c1 (racemic) = 7.89

Fill in: pIC50 of CCOC(=O)N=S(C)(=O)Cc1cccc(Nc2ncnc(-c3cccc4c3OC(F)(F)O4)n2)c1 (racemic) is ___
7.48

What do we get for CS(=N)(=O)Cc1cccc(Nc2ncnc(-c3cccc4c3OCC4)n2)c1 (racemic) [Example 34] ?
7.17

What do we get for Cc1cc(COc2cc(F)ccc2-c2ncnc(Nc3cccc(CS(C)(=N)=O)c3)n2)ccc1F (racemic) ?
8.52

What do we get for CCS(=N)(=O)Cc1cccc(Nc2ncnc(-c3ccc(F)cc3OC)n2)c1 (racemic) ?
8.10

What do we get for CC#CCOc1cc(F)ccc1-c1ncnc(Nc2cccc(CS(C)(=N)=O)c2)n1 (single isomer, unassigned) [Example 75] ?
8.40

###

biological target: CDK9/CycT1 (Homo sapiens (Human), UniProt P50750); experiment: CDK9/CycT1 kinase assay (TR-FRET); format: biochemical; conditions: Method 1
MEASURE: pIC50
The quantity pIC50 is defined as the negative base-10 logarithm of the molar concentration.

CC(Oc1cc(F)ccc1-c1ncnc(Nc2cccc(CS(C)(=N)=O)c2)n1)C1CCCC1 (stereo not shown) [Example 63] = 7.00

Fill in: pIC50 of CS(=N)(=O)Cc1cccc(Nc2ncnc(-c3ccc(F)cc3OCc3ccnc(F)c3)n2)c1 (racemic) [Example 82] is ___
8.15

What do we get for CNC(=O)N=S(C)(=O)Cc1cccc(Nc2ncnc(-c3ccc(F)cc3OC)n2)c1 (single isomer, unassigned; (-)) [Example 16] ?
7.72

What do we get for CCOC(=O)N=S(C)(=O)Cc1cccc(Nc2ncnc(-c3ccccc3OCc3ccc(F)cc3)n2)c1 (racemic) [Example 42] ?
8.30

What do we get for CS(=N)(=O)Cc1cccc(Nc2ncnc(-c3ccc(F)cc3OCCC(F)(F)F)n2)c1 (racemic) [Example 65] ?
7.10

What do we get for CCOC(=O)N=S(C)(=O)Cc1cccc(Nc2ncnc(-c3ccccc3Oc3ccccc3)n2)c1 (racemic) [Example 47] ?
7.46

What do we get for C=CCOc1cc(F)ccc1-c1ncnc(Nc2cccc(CS(C)(=N)=O)c2)n1 (racemic) [Example 85] ?
8.05

###

Listed next: entries and their corresponding IC50.
target: CDK2/CycE (Homo sapiens (Human)); assay: CDK2/CycE kinase assay (TR-FRET); assay type: biochemical; details: Method 2
Numbers only; they are read as nM.

# annotated cases, reported IC50 shown
CCCOc1cc(F)ccc1-c1ncnc(Nc2cccc(CS(C)(=N)=O)c2)n1 (racemic) = 2300
COc1cc(Cl)ccc1-c1ncnc(Nc2cccc(CS(C)(=N)=O)c2)n1 (single isomer, unassigned) [Example 13] = 9500
CCOC(=O)N=S(C)(=O)Cc1cccc(Nc2ncnc(-c3cccc4c3OCCC4)n2)c1 (racemic) = 1200
CC#CCOc1cc(F)ccc1-c1ncnc(Nc2cccc(CS(C)(=N)=O)c2)n1 (racemic) [Example 73] = 820
CCOC(=O)N=S(C)(=O)Cc1cccc(Nc2ncnc(-c3cccc4c3OC(F)(F)O4)n2)c1 (racemic) = 3900
CS(=N)(=O)Cc1cccc(Nc2ncnc(-c3ccc(F)cc3OCCCC(F)(F)F)n2)c1 (racemic) = 1300

Fill in: IC50 of COc1cc(F)ccc1-c1ncnc(Nc2cc(F)c(F)c(CS(C)(=O)=NC#N)c2)n1 (racemic) is ___
140

###

Test: Equilibrium shake flask solubility assay
Format: physicochemical
Details: phosphate buffer, pH 6.5, aqueous buffer, thermodynamic from solid, water, pH 6.5, equilibrium shake flask method
Description: 4. Equilibrium Shake Flask Solubility Assay: The thermodynamic solubility of compounds in water was determined by an equilibrium shake flask method (see for example: E. H. Kerns, L. Di: Drug-like Properties: Concepts, Structure Design and Methods, 276-286, Burlington, Mass., Academic Press, 2008). […] The solution was centrifuged to remove the insoluble fraction and the concentration of the compound in solution was determined using a standard calibration curve. […]
MEASURE: solubility thermodynamic at 24 h (µg/mL)
Numbers only; they are read as µg/mL.

COc1cc(F)ccc1-c1ncnc(Nc2cccc(CS(C)(=N)=O)c2)n1 (single isomer, unassigned; (-)) [Example 3] = 601
CCCOc1cc(F)ccc1-c1ncnc(Nc2cccc(CS(C)(=N)=O)c2)n1 (racemic) [Example 91] = 104
COc1cc(F)c(F)cc1-c1ncnc(Nc2cccc(CS(C)(=N)=O)c2)n1 (racemic) [Example 10] = 130
CC#CCOc1cc(F)ccc1-c1ncnc(Nc2cccc(CS(C)(=N)=O)c2)n1 (racemic) [Example 73] = 1220
COc1cc(F)ccc1-c1ncnc(Nc2cc(F)cc(CS(C)(=N)=O)c2)n1 (single isomer, unassigned) [Example 54] = 120

Fill in: solubility thermodynamic at 24 h of CNC(=O)N=S(C)(=O)Cc1cccc(Nc2ncnc(-c3ccc(F)cc3OC)n2)c1 (single isomer, unassigned; (-)) [Example 16] is ___
323

What do we get for CCOc1cc(F)ccc1-c1ncnc(Nc2cccc(CS(C)(=N)=O)c2)n1 (racemic) [Example 88] ?
884

###

target: CDK2/CycE (Homo sapiens (Human)); assay: CDK2/CycE kinase assay (TR-FRET); type: biochemical; conditions: Method 2
pIC50: −log10 of the molar value.
Classification field: enter t for pIC50 values not below 6, f for values below it.

// inclusive: pIC50 at least 6? input: CS(=N)(=O)Cc1cccc(Nc2ncnc(-c3ccc(F)cc3OCc3ccc(F)cc3)n2)c1 (racemic) [Example 56]
t

###

target: human carbonic anhydrase-1 (Homo sapiens (Human), UniProt P00915)
Sequence (P00915 whole entry): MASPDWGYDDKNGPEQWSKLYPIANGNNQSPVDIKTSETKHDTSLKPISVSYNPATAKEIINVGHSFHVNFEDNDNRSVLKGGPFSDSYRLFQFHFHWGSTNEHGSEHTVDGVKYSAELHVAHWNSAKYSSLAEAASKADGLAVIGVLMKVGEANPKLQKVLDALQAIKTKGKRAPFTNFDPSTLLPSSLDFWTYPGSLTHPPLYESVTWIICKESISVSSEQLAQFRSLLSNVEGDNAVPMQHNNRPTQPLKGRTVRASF
MEASURE: IC50

Fill in: IC50 of COc1cc(F)ccc1-c1ncnc(Nc2cccc(CS(C)(=N)=O)c2)n1 (single isomer, unassigned; (-)) is ___
> 10 µM

###

Listed next: entries and their corresponding pIC50.
Biological target: CDK2/CycE (Homo sapiens (Human), UniProt P24941)
Test: CDK2/CycE kinase assay (TR-FRET)
Type: biochemical
Conditions: Method 2
Text: 2. CDK2/CycE Kinase Assay: CDK2/CycE—inhibitory activity of compounds of the present invention was quantified employing the CDK2/CycE TR-FRET assay as described in the following paragraphs: Recombinant fusion proteins of GST and human CDK2 and of GST and human CycE, expressed in insect cells (Sf9) and purified by Glutathion-Sepharose affinity chromatography, were purchased from ProQinase GmbH (Freiburg, Germany). As substrate for the kinase reaction biotinylated peptide biotin-Ttds-[…]
The quantity pIC50 is defined as the negative base-10 logarithm of the molar concentration.

# annotated cases, reported pIC50 shown
CS(=N)(=O)Cc1cccc(Nc2ncnc(-c3ccc(F)cc3OCCC3CCOCC3)n2)c1 (racemic) = 5.08
COc1cc(F)ccc1-c1ncnc(Nc2cccc(CS(=O)(=NC#N)C3CC3)c2)n1 (racemic) = 6.52
CS(=N)(=O)Cc1cccc(Nc2ncnc(-c3cccc4c3OCCC4)n2)c1 (racemic) [Example 30] = 6.03
CS(=N)(=O)Cc1cccc(Nc2ncnc(-c3ccc(F)cc3OCc3ccc(C(F)(F)F)cc3)n2)c1 (racemic) = 5.85
CS(=N)(=O)Cc1cccc(Nc2ncnc(-c3ccc(F)cc3OCC3CCCCC3)n2)c1 (racemic) = 5.66
CS(=N)(=O)Cc1cccc(Nc2ncnc(-c3ccc(F)cc3OCc3cccc(Cl)c3)n2)c1 (racemic) = 6.60
CCOC(=O)N=S(C)(=O)Cc1cccc(Nc2ncnc(-c3cccc(Cl)c3OC)n2)c1 (racemic) = 5.05
C=CCOc1cc(F)ccc1-c1ncnc(Nc2cccc(CS(C)(=N)=O)c2)n1 (racemic) = 6.42

Could you now consider this next compound?
Fill in: pIC50 of CC#CCOc1cc(F)ccc1-c1ncnc(Nc2cccc(CS(C)(=N)=O)c2)n1 (single isomer, unassigned) [Example 74] is ___
6.23

###

Listed next: entries and their corresponding pIC50.
biological target: CDK9/CycT1 (Homo sapiens (Human), UniProt P50750); experiment: CDK9/CycT1 kinase assay (TR-FRET); format: biochemical; conditions: Method 1
The quantity pIC50 is defined as the negative base-10 logarithm of the molar concentration.

# annotated cases, reported pIC50 shown
CCS(=O)(Cc1cccc(Nc2ncnc(-c3ccc(F)cc3OC)n2)c1)=NC#N (racemic) = 8.40
CS(=N)(=O)Cc1cccc(Nc2ncnc(-c3ccc(F)cc3OCc3ccccn3)n2)c1 (racemic) = 7.01
CS(=N)(=O)Cc1cccc(Nc2ncnc(-c3ccc(F)cc3OCc3cncs3)n2)c1 (racemic) = 7.64

Fill in: pIC50 of COc1cc(F)ccc1-c1ncnc(Nc2cc(F)cc(CS(C)(=O)=NC#N)c2)n1 (racemic) [Example 70] is ___
8.22

What do we get for CNC(=O)N=S(C)(=O)Cc1cccc(Nc2ncnc(-c3ccc(F)cc3OC)n2)c1 (racemic) [Example 15] ?
8.15

What do we get for C=C(CO)COc1cc(F)ccc1-c1ncnc(Nc2cccc(CS(C)(=N)=O)c2)n1 (racemic) ?
8.40

What do we get for [2H]c1c([2H])c([2H])c(C([2H])([2H])Oc2cc(F)ccc2-c2ncnc(Nc3cccc(CS(C)(=N)=O)c3)n2)c([2H])c1[2H] (racemic) ?
8.15
